tested.system: human GALR3 (Homo sapiens)
Construct: host or cells: HEK293 cells stably expressing Gαqi
Sequence (O60755 whole entry): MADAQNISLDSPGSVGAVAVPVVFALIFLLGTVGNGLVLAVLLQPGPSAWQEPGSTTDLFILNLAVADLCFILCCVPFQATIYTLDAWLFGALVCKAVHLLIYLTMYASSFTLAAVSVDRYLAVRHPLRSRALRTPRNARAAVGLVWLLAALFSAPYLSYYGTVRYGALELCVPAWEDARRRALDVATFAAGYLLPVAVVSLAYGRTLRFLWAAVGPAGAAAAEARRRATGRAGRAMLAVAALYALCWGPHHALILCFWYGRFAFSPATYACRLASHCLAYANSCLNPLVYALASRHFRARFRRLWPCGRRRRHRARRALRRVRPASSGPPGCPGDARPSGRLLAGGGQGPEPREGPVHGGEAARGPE
run.description: SRE-luc reporter assay, GALR3;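 also: luciferase activity read in cell lysates across rising peptide concentrations, EC50 being the agonist concentration giving half-maximal stimulation from a sigmoidal nonlinear fit, Gαqi routing Gi-coupled receptor signaling through Gq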
Type: cell-based
recorded.conditions: HEK293-Gqi cells transfected with SRE-luc and human GALR3; 6 h ligand treatment; mean ± S.E. of at least three independent experiments; NM = not measurable; read-out: GALR3 EC50
pEC50: −log10 of the molar value. Where a SMILES comes first, the peptide text is derived from it. [ ]: non-standard residue; d: D form.
Reported pEC50 by item:
property.label: pEC50

# compound, property.label, value.observed
data = [
    ("CSCC[C@H](NC(=O)[C@H](C)NC(=O)[C@H](CCC(N)=O)NC(=O)[C@@H](C)NC(=O)[C@@H](NC(=O)[C@H](Cc1c[nH]c2ccccc12)NC(=O)[C@@H](N)CC(N)=O)[C@@H](C)O)C(=O)N[C@@H](CC(C)C)C(=O)N[C@@H](Cc1ccc(O)cc1)C(=O)N[C@@H](CC(C)C)C(=O)N[C@@H](CCCCN)C(=O)NCC(=O)N[C@@H](C)C(=O)N[C@@H](CCC(N)=O)C(N)=O [dA4] (H-NWT[dA]QAMLYLKGAQ-NH2)", "pEC50", 6.95),
    ("CSCC[C@H](NC(=O)[C@H](C)NC(=O)[C@H](CCC(N)=O)NC(=O)[C@@H]1CCCN1C(=O)[C@@H](NC(=O)[C@H](Cc1c[nH]c2ccccc12)NC(=O)[C@@H](N)CC(N)=O)[C@@H](C)O)C(=O)N[C@@H](CC(C)C)C(=O)N[C@@H](Cc1ccc(O)cc1)C(=O)N[C@@H](CC(C)C)C(=O)N[C@@H](CCCCN)C(=O)NCC(=O)N[C@@H](C)C(=O)N[C@H](CCC(N)=O)C(N)=O [dQa14]", "pEC50", 6.49),
]
